Just for reference, PubChem BioAssay AID1159580 is where these values come from.

TEST_DESCRIPTION: chemical genetic growth profiling, strain panel (AID 1159580);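 note: tested at 20 µM; growth read once vehicle control cultures reached saturation at 30 °C; 1 = growth at the plate median or of vehicle wells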
TEST_CONTEXT: S. cerevisiae deletion strains, growth OD, locus YOL012C, strain htz1
Out of some 5,500 compounds screened, about 2,000 (36%) were called active. Roughly 18% stayed inconclusive and do not appear here. The list shows a part of the results.
Label t when normalized growth < 1; otherwise f.

Field: example entries. Status: answers known.
COMPOUND | ASSIGNED_CATEGORY
NCCc1c[nH]c2ccccc12 | f
COc1ccc2c(=O)ccoc2c1 | t
CC(=O)N[C@@H](Cc1c[nH]c2ccccc12)C(=O)O | t
COc1ccc([C@H]2COc3c(ccc(O)c3OC)C2)c(OC)c1O | t
COc1cccc(O)c1O | t
CNC(Cc1c[nH]c2ccccc12)C(=O)O (configuration not stated) | f

Would you kindly look at the next entry?
*Q* Find out if reported normalized growth for COc1c2occc2c(OC)c2c(=O)cc(C)oc12 is less than 1
*A* f

====

TEST_DESCRIPTION: chemical genetic growth profiling, strain panel (AID 1159580)
TEST_CONTEXT: S. cerevisiae deletion strains, growth OD, locus YER015W, strain faa2, active compounds read low
Screen size: about 5,500 compounds; about 2,000 (36%) were called active. Not shown: some 18% with an inconclusive outcome. The list shows a part of the results.
MEASURED_PROPERTY: normalized growth
Answer field: number only, no words.

In the examples that follow, each entry is paired with its recorded normalized growth.
MOLECULE | normalized growth
CC1(C)C(=O)[C@@H]2C[C@@]3(O)C4=CC(=O)O[C@@H](c5ccoc5)[C@]4(C)CCC3[C@@](C)(C2=O)[C@H]1CC(=O)O (stereo partly specified) | 1
O=C(CCc1ccc(O)cc1)c1c(O)cc(O)cc1O[C@@H]1O[C@H](CO)[C@@H](O)[C@H](O)[C@H]1O | 1.02

# context switch: different molecule, same normalized growth
Measured normalized growth of COc1ccc([C@H]2COc3c(ccc(O)c3OC)C2)c(OC)c1O : 0.989

====

TEST_DESCRIPTION: chemical genetic growth profiling, strain panel (AID 1159580)
TEST_CONTEXT: S. cerevisiae deletion strains, growth OD, locus YDR137W, strain rgp1, active compounds read low
In all, about 5,500 compounds went through this assay and about 2,000 (36%) were called active. Not shown: some 18% with an inconclusive outcome. The list shows a part of the results.
MEASURED_PROPERTY: normalized growth

COMPOUND | normalized growth
O=c1c(O)c(-c2ccc(O)c(O)c2)oc2cc(O)ccc12 | 0.978 (inactive)
NC(N)=NC(N)=Nc1ccccc1 | 0.981 (inactive)
CN1CCN(CCCN2c3ccccc3Sc3ccc(C(F)(F)F)cc32)CC1 | 0.261 (active)
CC[C@@H](CO)NC(=O)[C@@H]1C=C2c3cccc4[nH]cc(c34)C[C@H]2N(C)C1 | 0.995 (inactive)
CN(C)CCc1c[nH]c2ccc(CS(=O)(=O)N3CCCC3)cc12 | 0.986 (inactive)
OCCN1CCN(CCCN2c3ccccc3Sc3ccc(C(F)(F)F)cc32)CC1 | 1.27 [resistant] (active)
CCCCc1nc(Cl)c(CO)n1Cc1ccc(-c2ccccc2-c2nn[nH]n2)cc1 | 0.986 (inactive)
CCOc1ccc(NC(C)=O)cc1 | 1.03 (inactive)

Measured normalized growth of COc1ccc(C(=O)c2ccccc2)c(O)c1O : 0.787 (active)

Measured normalized growth of COc1cc2c(cc1OC)[C@@]13CCN4CC5=CCOC6CC(=O)N2C1[C@H]6[C@H]5C[C@H]43 (some centres undefined) : 1 (inactive)

Measured normalized growth of NC(=O)NO : 1.04 (inactive)

Measured normalized growth of CCOc1ccc(C(=O)c2ccc(O)c(O)c2O)cc1 : 0.701 (active)

Measured normalized growth of CCOc1ccc(C(=O)c2ccc(OC)c(O)c2O)cc1 : 0.913 (inactive)

====

TEST_DESCRIPTION: chemical genetic growth profiling, strain panel (AID 1159580)
TEST_CONTEXT: S. cerevisiae deletion strains, growth OD, locus YJL154C, strain vps35
Screen size: about 5,500 compounds; about 2,000 (36%) were called active. Roughly 18% stayed inconclusive and do not appear here. Rule as the data show it: active = normalized growth mostly below about 0.91 (no sharp cut-off); inconclusive = no clear call, values can overlap the other calls; inactive = mostly above about 0.92. Some of the results follow.
Select the matching outcome among label 1 = active, label 0 = inactive

Field: example entries. Status: answers known.
COMPOUND | ASSIGNED_CATEGORY
O=c1oc2c(O)c(O)cc3c(=O)oc4c(O)c(O)cc1c4c23 | label 1
C#C[C@]1(O)CCC2C3CCC4=Cc5oncc5C[C@]4(C)C3CC[C@@]21C (some centres not stated) | label 0
COc1cccc(OC)c1C(=O)N[C@@H]1C(=O)N2[C@@H]1SC(C)(C)[C@@H]2C(=O)O | label 0
OC(c1cc(C(F)(F)F)nc2c(C(F)(F)F)cccc12)C1CCCCN1 (configuration not stated) | label 0
CCOC([O-])=Nc1c[n+](N2CCOCC2)no1 | label 0

*Q* How was O=C1c2ccccc2C(=O)C1c1ccccc1 classified in this test?
*A* label 0

====

Quick reference: normalized growth of the listed items.
TEST_DESCRIPTION: chemical genetic growth profiling, strain panel (AID 1159580);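 note: tested at 20 µM; growth read once vehicle control cultures reached saturation at 30 °C; 1 = growth at the plate median or of vehicle wells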
TEST_CONTEXT: S. cerevisiae deletion strains, growth OD, locus YBR009C, strain hhf1, active compounds read low
In all, about 5,500 compounds went through this assay and about 2,000 (36%) were called active. Another 18% or so got no clear call; they are omitted. The list shows a part of the results.

In the examples that follow, each entry is paired with its recorded normalized growth.
COMPOUND | REPORTED_MEASUREMENT
COc1c2occc2c(OC)c2c(=O)cc(C)oc12 | 0.963 (inactive)
CC(=O)[C@@]1(O)CCC2C3CCC4=CC(=O)CC[C@]4(C)C3CC[C@@]21C (stereo not given in full) | 0.995 (inactive)
CC(=O)OCC(=O)[C@@]12OC3(CCCC3)O[C@@H]1CC1C3CCC4=CC(=O)C=C[C@]4(C)[C@@]3(F)[C@@H](O)C[C@@]12C (stereo not given in full) | 1.01 (inactive)
C1CCC(C(CC2CCCCN2)C2CCCCC2)CC1 (stereo not given) | 0.955 (inactive)

Measured normalized growth of OCCN1CCN(CCCN2c3ccccc3Sc3ccc(C(F)(F)F)cc32)CC1 : 0.935 (inactive)

====

TEST_DESCRIPTION: chemical genetic growth profiling, strain panel (AID 1159580);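 note: tested at 20 µM; growth read once vehicle control cultures reached saturation at 30 °C; 1 = growth at the plate median or of vehicle wells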
TEST_CONTEXT: S. cerevisiae deletion strains, growth OD, locus YNL233W, strain BNI4
About 2,000 (36%) of roughly 5,500 compounds were called active. Another 18% or so got no clear call; they are omitted. No stated cut-off is given here; in the data, active means normalized growth mostly below about 0.91 (no sharp cut-off); inconclusive means no clear call, values can overlap the other calls; inactive means mostly above about 0.92. Some of the results follow.
Select the matching outcome among active, inactive

Field: example entries. Status: answers known.
COMPOUND | ASSIGNED_CATEGORY
CC(=O)[O][Hg][c]1ccccc1 | active
CNC(Cc1c[nH]c2ccccc12)C(=O)O (stereo unspecified) | inactive
CC[C@@H](CO)NC(=O)[C@@H]1C=C2c3cccc4[nH]cc(c34)C[C@H]2N(C)C1 | inactive
COc1c2occc2c(OC)c2c(=O)cc(C)oc12 | inactive
CO[C@H]1C[C@H](O[C@H]2[C@H](C)[C@@H](OC3O[C@H](C)C[C@H](N(C)C)[C@H]3OC(C)=O)[C@@H](C)C[C@]3(CO3)C(=O)[C@H](C)[C@@H](OC(C)=O)[C@@H](C)[C@@H](C)OC(=O)[C@@H]2C)O[C@@H](C)[C@@H]1OC(C)=O (stereo partly specified) | inactive

Would you kindly look at the next entry?
*Q* How was CCNc1nc(Cl)nc(NCC)n1 classified in this test?
*A* inactive

====

TEST_DESCRIPTION: chemical genetic growth profiling, strain panel (AID 1159580);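 note: tested at 20 µM; growth read once vehicle control cultures reached saturation at 30 °C; 1 = growth at the plate median or of vehicle wells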
TEST_CONTEXT: S. cerevisiae deletion strains, growth OD, locus YDL074C, strain BRE1
In all, about 5,500 compounds went through this assay and about 2,000 (36%) were called active. Not shown: some 18% with an inconclusive outcome. No stated cut-off is given here; in the data, active means normalized growth mostly below about 0.91 (no sharp cut-off); inconclusive means no clear call, values can overlap the other calls; inactive means mostly above about 0.92. The list shows a part of the results. Where a SMILES comes first, the peptide text is derived from it. Side-chain parts run from the residue outwards. [ ]: non-standard residue; d: D form. The star is where a group is joined. X1 = CCC(C)C(N)C1=NC(C(=O)*)CS1; Orn = NCCC[CH](N)C(=O)O
Select the matching outcome among active, inactive

COMPOUND | ASSIGNED_CATEGORY
CO[C@H]1C[C@H](O[C@H]2[C@H](C)[C@@H](OC3O[C@H](C)C[C@H](N(C)C)[C@H]3OC(C)=O)[C@@H](C)C[C@]3(CO3)C(=O)[C@H](C)[C@@H](OC(C)=O)[C@@H](C)[C@@H](C)OC(=O)[C@@H]2C)O[C@@H](C)[C@@H]1OC(C)=O (stereo not given in full) | inactive
CC1(C)S[C@@H]2[C@H](NC(=O)Cc3ccccc3)C(=O)N2[C@H]1C(=O)O | inactive

*Q* How was CO[C@@]1(NC(=O)Cc2cccs2)C(=O)N2C(C(=O)O)=C(COC(N)=O)CS[C@@H]21 classified in this test?
*A* inactive

*Q* How was COc1ccc(C(=O)O)c(O)c1OC classified in this test?
*A* inactive

*Q* How was CCNc1nc(Cl)nc(NCC)n1 classified in this test?
*A* inactive

*Q* How was CCCCCCCCCCCCCCCCCCOCC(O)CO (stereo not given) classified in this test?
*A* inactive

*Q* How was COc1cccc(OC)c1C(=O)N[C@@H]1C(=O)N2[C@@H]1SC(C)(C)[C@@H]2C(=O)O classified in this test?
*A* inactive

*Q* How was Cc1cc(C(C)(C)C)cc(C)c1CC1=NCCN1 classified in this test?
*A* inactive

*Q* How was CC1=C(O)C(=O)C=C2C1=CC=C1[C@@]2(C)CC[C@@]2(C)[C@@H]3C[C@](C)(C(=O)O)CC[C@]3(C)CC[C@]12C classified in this test?
*A* active

*Q* How was CCOc1ccc(NC(C)=O)cc1 classified in this test?
*A* inactive

*Q* How was CC(=O)NO classified in this test?
*A* inactive

*Q* How was COc1ccc(C(=O)c2ccc(O)cc2)c(O)c1O classified in this test?
*A* inactive

*Q* How was COc1cc(/C=C/C=O)cc(OC)c1OC classified in this test?
*A* inactive

*Q* How was O=C(O)c1cc(=O)c2c(Cl)cc(Cl)cc2[nH]1 classified in this test?
*A* inactive

*Q* How was CC(=O)Oc1cc2c(c(C)c1OC(C)=O)CC1OC13C2(C)CCC1(C)C2CC(C)(C(=O)O)CCC2(C)CCC13C (stereo not given) classified in this test?
*A* inactive

*Q* How was CCOc1ccc(C(=O)c2ccc(O)c(O)c2O)cc1 classified in this test?
*A* active

*Q* How was COC(=O)[C@]1(C)CC[C@]2(C)CC[C@]3(C)C4=CC=C5C(=CC(=O)C(O)=C5C)[C@]4(C)CC[C@@]3(C)[C@@H]2C1 classified in this test?
*A* active

*Q* How was Cc1ccc(N(CC2=NCCN2)c2cccc(O)c2)cc1 classified in this test?
*A* inactive

*Q* How was CCC(C)C(N)C1=NC(C(=O)NC(CC(C)C)C(=O)NC(CCC(=O)O)C(=O)NC(C(=O)NCCCCC2NC(=O)C(CC(N)=O)NC(=O)C(CC(=O)O)NC(=O)C(Cc3cnc[nH]3)NC(=O)C(Cc3ccccc3)NC(=O)C(C(C)CC)NC(=O)C(CCCN)NC2=O)C(C)CC)CS1 (stereo not drawn) (cyclo(DNK([Ile-Glu-Leu-X1])[Orn]IFH); configuration not given here) classified in this test?
*A* inactive

*Q* How was COP(=O)(OC)OC(Br)C(Cl)(Cl)Br (stereo not given) classified in this test?
*A* inactive
